Biological target: recombinant human AMPK complex, containing α2β1γ2 (Homo sapiens, UniProt P54646+Q9Y478)
Construct: hsAMPKα2-552-His, hsAMPKβ1-2-270 and hsAMPKγ-2-569 respectively; hsAMPKβ1-2-270; hsAMPKγ-2-569; His (C)
Sequence (P54646 2-552): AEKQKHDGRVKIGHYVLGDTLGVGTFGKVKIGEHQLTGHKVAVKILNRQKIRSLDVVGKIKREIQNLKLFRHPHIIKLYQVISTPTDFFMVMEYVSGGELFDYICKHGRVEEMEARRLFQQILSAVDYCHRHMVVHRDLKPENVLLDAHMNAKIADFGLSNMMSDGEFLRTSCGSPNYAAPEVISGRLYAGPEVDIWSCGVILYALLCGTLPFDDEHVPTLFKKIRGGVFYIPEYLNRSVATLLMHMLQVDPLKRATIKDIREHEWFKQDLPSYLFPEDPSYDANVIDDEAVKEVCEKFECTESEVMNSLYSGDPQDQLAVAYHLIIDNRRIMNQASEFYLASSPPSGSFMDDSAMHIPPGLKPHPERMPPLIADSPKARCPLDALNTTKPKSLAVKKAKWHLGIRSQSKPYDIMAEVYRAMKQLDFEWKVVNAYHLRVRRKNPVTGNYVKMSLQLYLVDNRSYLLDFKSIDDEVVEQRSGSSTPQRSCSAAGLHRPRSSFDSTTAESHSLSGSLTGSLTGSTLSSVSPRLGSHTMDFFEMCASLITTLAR
Sequence (Q9Y478 2-270): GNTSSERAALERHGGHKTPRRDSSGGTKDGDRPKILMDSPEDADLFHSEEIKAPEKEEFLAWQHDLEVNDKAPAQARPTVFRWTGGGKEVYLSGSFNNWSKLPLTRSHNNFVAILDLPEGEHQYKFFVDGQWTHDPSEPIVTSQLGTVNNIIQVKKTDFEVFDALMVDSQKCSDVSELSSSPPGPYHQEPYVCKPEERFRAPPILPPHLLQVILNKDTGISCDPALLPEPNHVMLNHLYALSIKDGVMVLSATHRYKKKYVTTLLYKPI
Sequence (Q9UGJ0 2-569 partner limits assumed): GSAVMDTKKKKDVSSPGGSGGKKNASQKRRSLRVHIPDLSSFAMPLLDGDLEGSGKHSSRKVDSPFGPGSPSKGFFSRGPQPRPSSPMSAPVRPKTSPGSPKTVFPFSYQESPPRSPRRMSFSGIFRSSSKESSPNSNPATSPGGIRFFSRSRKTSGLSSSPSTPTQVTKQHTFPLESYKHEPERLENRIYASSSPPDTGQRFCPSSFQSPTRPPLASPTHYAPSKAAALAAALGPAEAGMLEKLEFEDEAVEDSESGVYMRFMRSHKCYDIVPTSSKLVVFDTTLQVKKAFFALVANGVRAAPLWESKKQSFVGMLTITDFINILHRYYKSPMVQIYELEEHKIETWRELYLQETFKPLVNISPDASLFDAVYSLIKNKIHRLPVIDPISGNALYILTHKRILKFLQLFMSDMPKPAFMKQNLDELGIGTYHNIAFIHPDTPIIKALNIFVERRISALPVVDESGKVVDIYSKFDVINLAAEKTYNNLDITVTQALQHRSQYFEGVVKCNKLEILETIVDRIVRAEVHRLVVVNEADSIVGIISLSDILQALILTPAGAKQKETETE
Test: AMPK in vitro activation assay (HTRF)
Settings: HTRF, recombinant human α2β1γ2 AMPK, 200 μM ATP, biotinylated ACC-CREBp peptide; repeat determinations on separate lines
Give pEC50 for every item shown.
Numbers only, as −log10 of the molar value.

Use the examples below as a reference point.
compound	endpointLabel	resultValue
COc1cc(F)c(C(O)=C2C(=O)Nc3cc(Cl)c(-c4ccc(N5CCOCC5)cc4)cc32)cc1F [Compound 108]	pEC50	8.22
Cc1cc(C(O)=C2C(=O)Nc3cc(C)c(-c4ccc(N5CCOCC5)cc4)cc32)on1 [Compound 31]	pEC50	6.27
Cc1cc(C(O)=C2C(=O)Nc3cc(Cl)c(-c4ccc(C5CC5)cc4)cc32)on1 [Compound 22]	pEC50	6.60

Please find the next compound below.
Consider the compound shown here: O=C1Nc2cc(Cl)c(-c3ccc(N4CCOCC4)cc3)cc2C1=C(O)c1cc(C2CCCCC2)no1 [Compound 86] What is its recorded pEC50?
7.21
